System: 786-0 renal
Experiment: NCI-60 one-dose screen, 48 h (100 = growth as untreated, 0 = no growth, -100 = all killed)
Conditions: 10 µM unless noted
Compounds without any hit were thinned out: in the full panel of roughly 83,000, 20% have a hit.
RECORDED_METRIC: growth (%)
Return type: number; implicit unit %.

Reported growth for CCN(CC)CCCNc1ccnc2cc3ccccc3cc12 was 66.8

Reported growth for CC1(O)COCCCCOc2c(CN)cccc2NC(=O)c2nc(cnc2N)-c2ccc(cc2)S(=O)(=O)C(C)(C)C1 (stereo not drawn) was -58

Reported growth for CN1C(=O)N(C)C2Nn3c(s/c(=C4\C(=O)N(CCc5ccccc5)c5ccccc54)c3=O)=NC21 (stereo not drawn) was 61.8
